- protocol.details: chemical genetic growth profiling, strain panel (AID 1159580);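 note: tested at 20 µM; growth read once vehicle control cultures reached saturation at 30 °C; 1 = growth at the plate median or of vehicle wells; lower values mean less growth of the strain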
- assay.context: S. cerevisiae deletion strains, growth OD, locus YHR079C, strain IRE1, active compounds read low
Among all 5,500 compounds or so, about 2,000 (36%) were called active. Inconclusive results (about 18%) are left out. The list shows a part of the results. Where a SMILES comes first, the peptide text is derived from it. The star is where a group is joined. For = O=C*
Would you mind telling me the reported normalized growth of each entry?
Simply state the number, no unit and no words.

Bench note: what normalized growth did COC(=O)C[C@H]1C(C)(C)C2(O)OC34CC2C(=O)[C@]1(C)C3CC[C@]1(C)C4=CC(=O)O[C@H]1c1ccoc1 (some centres undefined) show? 0.972

Bench note: what normalized growth did COc1cccc(NC(=S)NC2CC(C)CC(C)(C)C2)c1 (centres undefined) show? 0.922

Bench note: what normalized growth did O=C(CNC(=O)c1ccc(Cl)cc1)NO show? 1.03

Bench note: what normalized growth did Clc1cc(Cl)cc(-c2nc(SCc3ccc(Cl)cc3Cl)n[nH]2)c1 show? 0.845

Bench note: what normalized growth did CC1(C)CC[C@]2(C)CC[C@]3(C)C(=CCC4[C@@]5(C)CC[C@H](O)C(C)(C)C5CC[C@]43C)C2C1 (some centres undefined) show? 1.03

Bench note: what normalized growth did CCOC(=O)OC(C)OC(=O)C1N2C(=O)C(NC(=O)[C@H](N)c3ccccc3)C2SC1(C)C (some centres undefined) show? 0.98

Bench note: what normalized growth did COc1ccc2c(c1)c(CC(=O)OCC(=O)O)c(C)n2C(=O)c1ccc(Cl)cc1 show? 0.941

Bench note: what normalized growth did C#C[C@]1(O)CCC2C3CCC4=CC(=O)CC[C@@H]4C3CC[C@@]21CC (some centres undefined) show? 0.955

Bench note: what normalized growth did Nc1ccc(S(=O)(=O)Nc2ccnn2-c2ccccc2)cc1 show? 0.967

Bench note: what normalized growth did Cc1ccc(S(=O)(=O)NC(=O)NN2CC3CCCC3C2)cc1 (centres undefined) show? 0.966

Bench note: what normalized growth did CC(=O)Nc1c(I)c(NC(C)=O)c(I)c(C(=O)O)c1I show? 1

Bench note: what normalized growth did Cc1nc(-c2ccccn2)nc(N(C)Cc2ccccc2)c1Cl show? 0.95

Bench note: what normalized growth did O=C(NCC1COc2ccccc2O1)c1ccc(Cl)cc1 (centres undefined) show? 0.759

Bench note: what normalized growth did C#C[C@]1(OC(C)=O)CCC2C3CCC4=CC(=O)CC[C@@H]4C3CC[C@@]21C (some centres undefined) show? 0.92

Bench note: what normalized growth did O=S(=O)(c1ccc(Cl)cc1)N(Cc1cccnc1)Cc1ccc(Cl)cc1Cl show? 0.55

Bench note: what normalized growth did O=C(c1cccs1)N(Cc1cccnc1)Cc1ccc(Cl)cc1Cl show? 1.21

Bench note: what normalized growth did CSCCC(NC=O)C(=O)NC(Cc1ccccc1)C(=O)O (stereo not drawn) (For-Met-Phe-OH; configuration not given here) show? 1.04

Bench note: what normalized growth did C/C=C(/C)C(=O)O[C@@H]1[C@H](OC(C)=O)[C@@]2(CO)C(CC1(C)C)C1=CCC3[C@@]4(C)CC[C@H](O[C@@H]5O[C@H](C(=O)O)[C@@H](O[C@@H]6O[C@H](CO)[C@@H](O)[C@H](O)[C@H]6O)[C@H](O)[C@H]5O[C@@H]5O[C@H](CO)[C@@H](O)[C@H](O)[C@H]5O)[C@](C)(CO)C4CC[C@@]3(C)[C@]1(C)C[C@H]2O (some centres undefined) show? 0.972

Bench note: what normalized growth did CCN1C[C@]2(OC(=O)c3ccccc3NC(C)=O)CCC(OC)[C@]34C1[C@H](CC23)[C@@]1(O)CC(OC)[C@H]2CC4C1(O)[C@H]2OC (some centres undefined) show? 0.98

Bench note: what normalized growth did COc1ccc2c(c1)c(CC(=O)O)c(C)n2C(=O)c1ccc(Cl)cc1 show? 0.96

Bench note: what normalized growth did CC(C)(Oc1ccc(CCNC(=O)c2ccc(Cl)cc2)cc1)C(=O)O show? 0.995

Bench note: what normalized growth did S=C(NNC(=S)NC1CC2C=CC1C2)Nc1ccc(Br)c(Cl)c1 (centres undefined) show? 0.954

Bench note: what normalized growth did O=C(c1ccc(Cl)cc1)N(Cc1ccccc1)Cc1cccnc1 show? 0.96

Bench note: what normalized growth did COC(=O)Nc1nc2ccc(Sc3ccccc3)cc2[nH]1 show? 0.964

Bench note: what normalized growth did OC(CCN1CCCC1)(c1ccccc1)C1CCCCC1 (centres undefined) show? 1.02

Bench note: what normalized growth did NNC(=O)c1ccncc1 show? 1.01

Bench note: what normalized growth did Nc1ccc(S(=O)(=O)c2ccc(N)cc2)cc1 show? 1.03

Bench note: what normalized growth did Cc1ccc(-c2cc(C(F)(F)F)nn2-c2ccc(S(N)(=O)=O)cc2)cc1 show? 0.963

Bench note: what normalized growth did Cc1cc(O)c2c(c1)Cc1cccc(O)c1C2=O show? 1.04

Bench note: what normalized growth did CCC(C)C(NC)C(=O)O (centres undefined) show? 1.09

Bench note: what normalized growth did O=C(O)CCCCCCCC(O)C(O)CCCCCCO (centres undefined) show? 1.01

Bench note: what normalized growth did Cc1ccc(S(=O)(=O)n2c(Sc3ccc([N+](=O)[O-])cc3[N+](=O)[O-])nc3cc(C)ccc32)cc1 show? 0.884

Bench note: what normalized growth did C[C@H]1[C@H](C)CC[C@]2(CO)CC[C@]3(C)C(=CCC4[C@@]5(C)CC[C@H](O)C(C)(C)C5CC[C@]43C)[C@H]12 (some centres undefined) show? 1.04

Bench note: what normalized growth did C#C[C@]1(O)CCC2C3CCC4=C(CCC(=O)C4)C3CC[C@@]21C (some centres undefined) show? 0.873

Bench note: what normalized growth did COC(=O)Nc1nc2ccc(S(=O)c3ccccc3)cc2[nH]1 (centres undefined) show? 1.02

Bench note: what normalized growth did NC12CC3CC(CC(C3)C1)C2 show? 1.02

Bench note: what normalized growth did CC1(C)CC[C@]2(C(=O)O)CC[C@]3(C)C(=CCC4[C@@]5(C)CC[C@@H](O)C(C)(C)C5CC[C@]43C)C2C1 (some centres undefined) show? 1.05

Bench note: what normalized growth did OC(CCN1CCCCC1)(c1ccccc1)C1CC2C=CC1C2 (centres undefined) show? 0.996

Bench note: what normalized growth did Fc1cccc(Cl)c1CSc1n[nH]c(-c2cc(C(F)(F)F)cc(C(F)(F)F)c2)n1 show? 0.836
